Recorded values, source paper PMC6129362.

Each entry below carries its reported tissue uptake at 1.5 h.
Test: PET/CT imaging in CAPAN-2-tumour-bearing mice
Type: in vivo
Settings: female, athymic nude-Foxn1nu (nu/nu), mouse, iv, total radioactivity, CAPAN-2 xenograft mice, i.v., PET 90 min after injection, mean ± SD (n=33 for -1, n=17 for -2), read-out: Tumour uptake quantified by PET imaging
Where a SMILES comes first, the peptide text is derived from it. The star is where a group is joined. DOTA = O=C(O)CN1CCN(CC(=O)O)CCN(CC(=O)*)CCN(CC(=O)O)CC1
Quick note: give the figure in %ID/g, leave out the unit.

-- ask I am curious: what tissue uptake at 1.5 h value has been reported for CC(C)C[C@H](NC(=O)[C@H](Cc1ccccc1)NC(=O)[C@@H](NC(=O)[C@H](CCCCN)NC(=O)[C@@H](NC(=O)[C@H](CC(N)=O)NC(=O)[C@H](Cc1c[nH]cn1)NC(=O)[C@H](CC(C)C)NC(=O)[C@H](Cc1c[nH]cn1)NC(=O)[C@H](CCCCN)NC(=O)[C@H](Cc1c[nH]c2ccccc12)NC(=O)[C@H](Cc1c[nH]cn1)NC(=O)CN1CCN(CC(=O)O)CCN(CC(=O)O)CCN(CC(=O)O)CC1)[C@@H](C)O)[C@@H](C)O)C(=O)O [^68Ga-DOTA-AF7p-1, metal not drawn] ({DOTA}-HWKHLHNTKTFL-OH) ?
-- reply 0.171

More entries:
-- ask Please look up its tissue uptake at 1.5 h: CC(C)C[C@H](NC(=O)[C@H](Cc1ccccc1)NC(=O)[C@@H](NC(=O)[C@H](CCCCN)NC(=O)[C@@H](NC(=O)[C@H](CC(N)=O)NC(=O)[C@H](Cc1c[nH]cn1)NC(=O)[C@H](CC(C)C)NC(=O)[C@H](Cc1c[nH]cn1)NC(=O)[C@H](CCCCNC(=O)CN1CCN(CC(=O)O)CCN(CC(=O)O)CCN(CC(=O)O)CC1)NC(=O)[C@H](Cc1c[nH]c2ccccc12)NC(=O)[C@@H](N)Cc1c[nH]cn1)[C@@H](C)O)[C@@H](C)O)C(=O)O [^68Ga-DOTA-AF7p-2, metal not drawn] (H-HWK(DOTA)HLHNTKTFL-OH)
-- reply 0.216

* * *

Experiment: PET/CT imaging in heterotopic (subcutaneous) patient-derived xenograft mice
Assay type: in vivo, mouse
Details: female, athymic nude-Foxn1nu (nu/nu), mouse, tumour, total radioactivity, heterotopic PDX mice, PET 90 min after injection, start of the PET study; n=8; read-out: Tumour uptake quantified by PET imaging
Where a SMILES comes first, the peptide text is derived from it. The star is where a group is joined. DOTA = O=C(O)CN1CCN(CC(=O)O)CCN(CC(=O)*)CCN(CC(=O)O)CC1
REPORTED ENDPOINT: tissue uptake at 1.5 h
Hi, when you answer, please include the unit after the number. Thanks!

-- ask Looking for the measured tissue uptake at 1.5 h of CC(C)C[C@H](NC(=O)[C@H](Cc1ccccc1)NC(=O)[C@@H](NC(=O)[C@H](CCCCN)NC(=O)[C@@H](NC(=O)[C@H](CC(N)=O)NC(=O)[C@H](Cc1c[nH]cn1)NC(=O)[C@H](CC(C)C)NC(=O)[C@H](Cc1c[nH]cn1)NC(=O)[C@H](CCCCN)NC(=O)[C@H](Cc1c[nH]c2ccccc12)NC(=O)[C@H](Cc1c[nH]cn1)NC(=O)CN1CCN(CC(=O)O)CCN(CC(=O)O)CCN(CC(=O)O)CC1)[C@@H](C)O)[C@@H](C)O)C(=O)O [^68Ga-DOTA-AF7p-1, metal not drawn] ({DOTA}-HWKHLHNTKTFL-OH) , can you help?
-- reply 0.23 %ID/g

* * *

Test: PET/CT imaging in heterotopic (subcutaneous) patient-derived xenograft mice
Assay type: in vivo, mouse
Settings: female, athymic nude-Foxn1nu (nu/nu), mouse, tumour, total radioactivity, heterotopic PDX mice, PET 90 min after injection, study day 14; n=10; read-out: Tumour uptake quantified by PET imaging
Where a SMILES comes first, the peptide text is derived from it. The star is where a group is joined. DOTA = O=C(O)CN1CCN(CC(=O)O)CCN(CC(=O)*)CCN(CC(=O)O)CC1
REPORTED ENDPOINT: tissue uptake at 1.5 h (%ID/g)
Numbers only; they are read as %ID/g.

-- ask Given the compound CC(C)C[C@H](NC(=O)[C@H](Cc1ccccc1)NC(=O)[C@@H](NC(=O)[C@H](CCCCN)NC(=O)[C@@H](NC(=O)[C@H](CC(N)=O)NC(=O)[C@H](Cc1c[nH]cn1)NC(=O)[C@H](CC(C)C)NC(=O)[C@H](Cc1c[nH]cn1)NC(=O)[C@H](CCCCN)NC(=O)[C@H](Cc1c[nH]c2ccccc12)NC(=O)[C@H](Cc1c[nH]cn1)NC(=O)CN1CCN(CC(=O)O)CCN(CC(=O)O)CCN(CC(=O)O)CC1)[C@@H](C)O)[C@@H](C)O)C(=O)O [^68Ga-DOTA-AF7p-1, metal not drawn] ({DOTA}-HWKHLHNTKTFL-OH) , what is its reported tissue uptake at 1.5 h?
-- reply 0.185

* * *

Test: PET/CT imaging in heterotopic (subcutaneous) patient-derived xenograft mice
Type: in vivo, mouse
Settings: female, athymic nude-Foxn1nu (nu/nu), mouse, tumour, total radioactivity, heterotopic PDX mice, PET 90 min after injection, study day 5; n=8; read-out: Tumour uptake quantified by PET imaging
Where a SMILES comes first, the peptide text is derived from it. The star is where a group is joined. DOTA = O=C(O)CN1CCN(CC(=O)O)CCN(CC(=O)*)CCN(CC(=O)O)CC1
REPORTED ENDPOINT: tissue uptake at 1.5 h (%ID/g)
Supply the numeric figure in %ID/g, leaving out any unit text.

-- ask # tissue uptake at 1.5 h lookup, item CC(C)C[C@H](NC(=O)[C@H](Cc1ccccc1)NC(=O)[C@@H](NC(=O)[C@H](CCCCN)NC(=O)[C@@H](NC(=O)[C@H](CC(N)=O)NC(=O)[C@H](Cc1c[nH]cn1)NC(=O)[C@H](CC(C)C)NC(=O)[C@H](Cc1c[nH]cn1)NC(=O)[C@H](CCCCN)NC(=O)[C@H](Cc1c[nH]c2ccccc12)NC(=O)[C@H](Cc1c[nH]cn1)NC(=O)CN1CCN(CC(=O)O)CCN(CC(=O)O)CCN(CC(=O)O)CC1)[C@@H](C)O)[C@@H](C)O)C(=O)O [^68Ga-DOTA-AF7p-1, metal not drawn] ({DOTA}-HWKHLHNTKTFL-OH)
-- reply 0.227

* * *

Experiment: PET/CT imaging in heterotopic (subcutaneous) patient-derived xenograft mice
Type: in vivo, mouse
Details: female, athymic nude-Foxn1nu (nu/nu), mouse, tumour, total radioactivity, heterotopic PDX mice, PET 90 min after injection, study day 8; n=6; read-out: Tumour uptake quantified by PET imaging
Where a SMILES comes first, the peptide text is derived from it. The star is where a group is joined. DOTA = O=C(O)CN1CCN(CC(=O)O)CCN(CC(=O)*)CCN(CC(=O)O)CC1
REPORTED ENDPOINT: tissue uptake at 1.5 h

-- ask Bench note: what tissue uptake at 1.5 h did CC(C)C[C@H](NC(=O)[C@H](Cc1ccccc1)NC(=O)[C@@H](NC(=O)[C@H](CCCCN)NC(=O)[C@@H](NC(=O)[C@H](CC(N)=O)NC(=O)[C@H](Cc1c[nH]cn1)NC(=O)[C@H](CC(C)C)NC(=O)[C@H](Cc1c[nH]cn1)NC(=O)[C@H](CCCCN)NC(=O)[C@H](Cc1c[nH]c2ccccc12)NC(=O)[C@H](Cc1c[nH]cn1)NC(=O)CN1CCN(CC(=O)O)CCN(CC(=O)O)CCN(CC(=O)O)CC1)[C@@H](C)O)[C@@H](C)O)C(=O)O [^68Ga-DOTA-AF7p-1, metal not drawn] ({DOTA}-HWKHLHNTKTFL-OH) show?
-- reply 0.26 %ID/g
